- Target Or Test System: T1, TNF-α (UniProt P01375 77-233, limits assumed)
- T1 construct: also called tumor necrosis factor; ligand
- T1 sequence (P01375 77-233 limits assumed): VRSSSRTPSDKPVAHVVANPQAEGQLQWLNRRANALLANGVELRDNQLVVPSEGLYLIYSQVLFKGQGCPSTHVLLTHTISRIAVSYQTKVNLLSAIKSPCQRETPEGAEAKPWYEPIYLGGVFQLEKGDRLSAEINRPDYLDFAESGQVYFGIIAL
- Procedure Details: competition ELISA: sample vs plate-bound TNFRI190 for TNF-α, from IC50, relative to wild-type TNFRI126
# Affinity (%) listing for each entry below
Readout Type: Affinity (%)

Binder	Unit Name	Recorded Measurement
TNFRI126-A2 (receptor, Met-TNFRI126 mutant made in E. coli) MDSVCPQGKYIHPQNNSICCTKCHKGTYLYNDCPGPGQDTDCRECESGSFTAIENFLPACLSCSKCRKEMGQVEISSCTVDRDTVCGCRKNQYRHYWSENLFQCFNCSLCLNGTVHLSCQEKQNTVC	%	829
TNFRI126-A15 (receptor, Met-TNFRI126 mutant made in E. coli) MDSVCPQGKYIHPQNNSICCTKCHKGTYLYNDCPGPGQDTDCRECESGSFTAYENFLPACLSCSKCRKEMGQVEISSCTVDRDTVCGCRKNQYRHYWSENLFQCFNCSLCLNGTVHLSCQEKQNTVC	%	941
TNFRI126-A16 (receptor, Met-TNFRI126 mutant made in E. coli) MDSVCPQGKYIHPQNNSICCTKCHKGTYLYNDCPGPGQDTDCRECESGSFTAKENFLPACLSCSKCRKEMGQVEISSCTVDRDTVCGCRKNQYRHYWSENLFQCFNCSLCLNGTVHLSCQEKQNTVC	%	882
TNFRI126-A27 (receptor, Met-TNFRI126 mutant made in E. coli) MDSVCPQGKYIHPQNNSICCTKCHKGTYLYNDCPGPGQDTDCRECESGSFTAIPNFLLGCLSCSKCRKEMGQVEISSCTVDRDTVCGCRKNQYRHYWSENLFQCFNCSLCLNGTVHLSCQEKQNTVC	%	894
